Target: extracellular domain of human BLyS protein (hBLyS-ECD), His-tagged, Ala134-Leu285 (human, UniProt Q9Y275 134-285)
Sequence (Q9Y275 134-285): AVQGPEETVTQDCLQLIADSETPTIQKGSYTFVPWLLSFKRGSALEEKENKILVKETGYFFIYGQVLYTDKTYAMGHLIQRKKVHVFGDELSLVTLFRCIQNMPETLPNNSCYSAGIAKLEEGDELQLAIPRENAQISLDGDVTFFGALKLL
Assay: cell-based or functional assay
Readout name: OD450 nm (as headed), mouse B lymphocyte proliferation; antibody 0.16 nM

{"Binder": "c97A3C2H4 (antibody, V domains shown, also called chimeric antibody c97A3C2H4) VH: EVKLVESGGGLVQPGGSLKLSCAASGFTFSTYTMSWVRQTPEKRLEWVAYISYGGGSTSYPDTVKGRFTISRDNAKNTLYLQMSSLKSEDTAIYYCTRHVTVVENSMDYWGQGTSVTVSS VL: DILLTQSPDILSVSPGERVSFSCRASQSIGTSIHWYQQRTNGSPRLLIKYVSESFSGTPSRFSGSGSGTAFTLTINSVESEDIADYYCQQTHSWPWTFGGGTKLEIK", "Test result": 3740}
{"Binder": "c93C6F10D3 (antibody, V domains shown) VH: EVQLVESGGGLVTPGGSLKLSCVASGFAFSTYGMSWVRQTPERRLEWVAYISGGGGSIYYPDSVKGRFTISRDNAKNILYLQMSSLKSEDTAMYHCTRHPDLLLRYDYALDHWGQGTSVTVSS VL: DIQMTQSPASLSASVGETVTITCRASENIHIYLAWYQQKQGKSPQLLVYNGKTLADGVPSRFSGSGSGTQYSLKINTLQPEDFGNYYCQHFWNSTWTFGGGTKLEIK", "Test result": 4300}
{"Binder": "c67A2E1D10 (antibody, V domains shown) VH: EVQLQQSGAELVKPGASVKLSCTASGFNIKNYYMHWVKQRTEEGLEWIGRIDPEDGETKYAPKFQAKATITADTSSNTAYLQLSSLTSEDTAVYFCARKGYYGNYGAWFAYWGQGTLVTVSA VL: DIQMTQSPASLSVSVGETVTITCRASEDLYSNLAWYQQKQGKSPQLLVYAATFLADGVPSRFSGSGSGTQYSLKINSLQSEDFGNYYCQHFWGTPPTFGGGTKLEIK", "Test result": 3900}
{"Binder": "c8E7D9C7F5 (antibody, V domains shown, also called chimeric antibody c8E7D9C7F5) VH: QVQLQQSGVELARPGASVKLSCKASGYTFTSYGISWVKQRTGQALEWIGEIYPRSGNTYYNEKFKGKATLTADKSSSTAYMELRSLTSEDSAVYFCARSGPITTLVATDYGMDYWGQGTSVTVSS VL: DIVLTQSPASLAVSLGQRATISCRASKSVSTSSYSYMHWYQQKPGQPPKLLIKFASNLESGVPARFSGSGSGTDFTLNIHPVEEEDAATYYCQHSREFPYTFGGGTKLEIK", "Test result": 4110}
